# assayedTarget: full-length beta-Catenin (Uniprot ID P35222) (Homo sapiens (Human)) (UniProt P35222)
# Sequence (P35222 whole entry): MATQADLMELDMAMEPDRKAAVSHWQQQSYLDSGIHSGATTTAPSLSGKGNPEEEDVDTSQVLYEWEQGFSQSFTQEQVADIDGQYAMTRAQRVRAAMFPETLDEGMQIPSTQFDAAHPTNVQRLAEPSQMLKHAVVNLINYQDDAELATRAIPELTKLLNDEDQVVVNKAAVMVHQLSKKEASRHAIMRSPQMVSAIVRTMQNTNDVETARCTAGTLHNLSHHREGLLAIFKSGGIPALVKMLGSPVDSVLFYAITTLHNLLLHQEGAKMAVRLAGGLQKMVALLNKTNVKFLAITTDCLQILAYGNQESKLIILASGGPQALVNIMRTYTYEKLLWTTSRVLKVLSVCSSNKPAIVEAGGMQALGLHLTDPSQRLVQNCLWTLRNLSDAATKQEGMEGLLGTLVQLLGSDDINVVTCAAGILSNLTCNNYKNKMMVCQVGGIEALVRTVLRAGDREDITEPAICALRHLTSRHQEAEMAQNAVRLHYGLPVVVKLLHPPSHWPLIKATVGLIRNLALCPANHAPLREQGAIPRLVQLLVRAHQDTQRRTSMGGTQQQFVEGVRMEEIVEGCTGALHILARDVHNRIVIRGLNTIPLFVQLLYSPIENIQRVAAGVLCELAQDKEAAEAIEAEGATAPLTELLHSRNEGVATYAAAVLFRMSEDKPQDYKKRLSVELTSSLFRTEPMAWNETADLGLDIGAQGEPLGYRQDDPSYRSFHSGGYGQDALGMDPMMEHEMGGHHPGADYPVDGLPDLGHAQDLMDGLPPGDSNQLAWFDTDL
# testSummary: FP competition: displacement of 5FAM-TCF4(10-53) from full-length beta-catenin
Starred links: 1 amine or outer side, 2 acyl side, 3 side chain; linkers in the order of their positions; H or OH if unused. Positions of bridges follow the written chain, without caps; N, C: chain ends. Non-standard residues stand in square brackets, D forms with d. Primed or numbered codes have the meaning given here. PyrS2(3) = (S)-3-amino-1-((pent-4-en-1-yloxy)carbonyl)pyrrolidine-3-carboxylic acid, stapling residue, C=CCCCOC(=O)N1CC[C@@](N[*:1])(C(=O)[*:2])C1; PyrS2″ = (S)-3-amino-1-((pent-4-en-1-yloxy)carbonyl)pyrrolidine-3-carboxylic acid (stapling residue), C=CCCCOC(=O)N1CC[C@@](N[*:1])(C(=O)[*:2])C1; B5(5) = 2,2-bis(4-pentenyl)glycine, 2-amino-2-(pent-4-en-1-yl)hept-6-enoic acid (stitching residue), C=CCCCC(CCCC=C)(N[*:1])C(=O)[*:2]; B5″ = 2,2-bis(4-pentenyl)glycine, stitching residue, C=CCCCC(CCCC=C)(N[*:1])C(=O)[*:2]; Bta = N[C@@H](Cc1csc2ccccc12)C(=O)O; αAllylPro = C=CC[C@@]1(C(=O)O)CCCN1; tBuAla = CC(C)(C)C[C@H](N)C(=O)O; 3Thi = N[C@@H](Cc1ccsc1)C(=O)O
measurementKind: EC50 (µM)

                                     binder  unittag  numericreadout
0  Ac-[αAllylPro]D[tBuAla][B5″]NDAAFL[PyrS2(3)][3Thi][Bta]Q-NH2 (staple 1-4, 4-11) [I-1207]       µM            0.04

(a) Ac-[αAllylPro]D[tBuAla][B5″]NDAAFN[PyrS2(3)][3Thi][Bta]Q-NH2 (staple 1-4, 4-11) [I-1206]
(b) Ac-[αAllylPro]L[tBuAla][B5(5)]DDAAFN[PyrS2″][3Thi][Bta]Q-NH2 (staple 1-4, 4-11) [I-1226]
Query: Min EC50? a | b Mark your answer with the label of the selected entry.
Result: a
(a: 0.032 µM, b: 0.559 µM)
